system: Ureaplasma parvum; test: Antimicrobial activity against Ureaplasma parvum SV14 isolate HPA32 after 48 hrs by modified broth microdilution technique; assay type: functional; conditions: SV14 isolate HPA32, 48 h
quantity_measured: MIC (µg/mL)

1: CN(C)[C@@H]1C(O)=C(C(N)=O)C(=O)[C@@]2(O)C(O)=C3C(=O)c4c(O)cccc4[C@@](C)(O)[C@H]3C[C@@H]12
2: CC[C@H]1OC(=O)[C@H](C)[C@@H](O[C@H]2C[C@@](C)(OC)[C@@H](O)[C@H](C)O2)[C@H](C)[C@@H](O[C@@H]2O[C@H](C)C[C@H](N(C)C)[C@H]2O)[C@](C)(O)C[C@@H](C)C(=O)[C@H](C)[C@@H](O)[C@]1(C)O
Field: lower MIC | Options: 1 / 2 In your reply, give the label of the chosen option. 1
(1: 1 µg/mL, 2: 8 µg/mL)
